Test system: HCT-116
test_protocol: Increase in acetylated histone H3 level in human HCT116 cells at 10 uM after 24 hrs relative to control
Format: functional
measured_metric: Fold change
Field format: numeric only.

Request: Tell me reported Fold change for O=C(CCCCCCC(=O)NCCCNCCCCNCc1ccccc1-c1ccccc1)NO , tested with HCT-116.
Response: 5.19

Request: Tell me reported Fold change for CC(C)c1ccc(CNCCCCNCCCNC(=O)CCCCCCC(=O)NO)cc1 , tested with HCT-116.
Response: 0

Request: Tell me reported Fold change for CN(C)c1ccc(CNCCCCNCCCNC(=O)CCCCCCC(=O)NO)cc1 , tested with HCT-116.
Response: 0

Request: Tell me reported Fold change for CC(C)(C)c1ccc(CNCCCCNCCCNC(=O)CCCCCC(=O)NO)cc1 , tested with HCT-116.
Response: 21.49

Request: Tell me reported Fold change for CN(C)c1ccc(CN(CCCNCCCCN)C(=O)CCCCCCC(=O)NO)cc1 , tested with HCT-116.
Response: 0

Request: Tell me reported Fold change for O=C(CCCCCCC(=O)NCCCNCCCCNCCSc1ccccc1)NO , tested with HCT-116.
Response: 0

Request: Tell me reported Fold change for O=C(CCCCC(=O)NCCCNCCCCNCCSc1ccccc1)NO , tested with HCT-116.
Response: 2.38

Request: Tell me reported Fold change for CC(C)(C)c1ccc(CNCCCCNCCCNC(=O)CCCCCCCC(=O)NO)cc1 , tested with HCT-116.
Response: 0

Request: Tell me reported Fold change for CC(C)(C)c1ccc(CNCCCCNCCCNC(=O)CCCCCCC(=O)NCc2ccc(C(=O)Nc3ccccc3N)cc2)cc1 , tested with HCT-116.
Response: 1.19

Request: Tell me reported Fold change for CC(C)c1ccc(CNCCCCNCCCNC(=O)CCCCC(=O)NO)cc1 , tested with HCT-116.
Response: 3.76

Request: Tell me reported Fold change for O=C(CCCCCCCCC(=O)NCCCNCCCCNCCC(c1ccccc1)c1ccccc1)NO , tested with HCT-116.
Response: 0

Request: Tell me reported Fold change for O=C(CCCCC(=O)NCCCNCCCCNCc1ccccc1-c1ccccc1)NO , tested with HCT-116.
Response: 3.34
